STUDY_TARGET: BCL-XL protein in MOLT-4 cells (Homo sapiens, UniProt Q07817)
Construct: host or cells: MOLT-4
Sequence (Q07817 whole entry): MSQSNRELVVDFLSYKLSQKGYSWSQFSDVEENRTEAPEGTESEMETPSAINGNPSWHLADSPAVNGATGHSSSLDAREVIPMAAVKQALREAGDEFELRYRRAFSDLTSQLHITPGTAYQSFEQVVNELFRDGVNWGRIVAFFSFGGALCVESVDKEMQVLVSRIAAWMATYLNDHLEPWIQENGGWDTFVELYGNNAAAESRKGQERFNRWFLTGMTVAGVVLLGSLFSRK
MEASUREMENT_PROTOCOL: Degradation effect on BCL-XL protein in MOLT-4 cells by Western Blot
Assay type: cell-based
COND: 24 hours incubation, corrected by β-actin, read-out: DC50 concentration for BCL-XL protein degradation
QUANTITY_MEASURED: DC50

Consider the worked cases shown below.
>  <COMPOUND>
CNc1nc(-c2cnc3ccccc3c2)nc2c1CCN(C(=O)c1ccc(/C=C/c3ccc(C#CCN4CCN(CC5CCN(c6ccc7c(c6)CN(C6CCC(=O)NC6=O)C7=O)CC5)CC4)cc3)cc1)C2 (centres unmarked)

>  <DC50>
< 1000 nM

$$$$
>  <COMPOUND>
CNc1nc(-c2cnc3ccccc3c2)nc2c1CCN(C(=O)c1ccc(/C=C/c3ccc(C#CCN4CCC(CN5CCN(c6cc7c(cc6F)C(=O)N(C6CCC(=O)NC6=O)C7=O)CC5)CC4)cc3)cc1)C2 (centres unmarked)

>  <DC50>
1000 to 10000 nM

$$$$
>  <COMPOUND>
CNc1nc(-c2cnc3ccccc3c2)nc2c1CCN(C(=O)c1ccc(/C=C/c3ccc(C#CCN4CCN(CC5CCN(c6ccc7c(c6)C(=O)N(C6CCC(=O)NC6=O)C7=O)CC5)CC4)cc3)cc1)C2 (centres unmarked)

>  <DC50>
1000 to 10000 nM

$$$$
>  <COMPOUND>
CNc1nc(-c2cnc3ccccc3c2)nc2c1CCN(C(=O)c1ccc(/C=C/c3ccc(C#CCN4CCN(CCC#Cc5cccc(N6CCC(=O)NC6=O)c5)CC4)cc3)cc1)C2

>  <DC50>
< 1000 nM

$$$$

-- ask Returns the measured DC50 for the input compound. Input: O=C1CCC(N2Cc3c(CN4CC5(C4)CN(C4CCN(CC#Cc6ccc(/C=C/c7ccc(C(=O)N8CCc9cnc(-c%10cnc%11ccccc%11c%10)nc9C8)cc7)cc6)CC4)C5)cccc3C2=O)C(=O)N1 (centres unmarked)
-- reply < 1000 nM

* * *

STUDY_TARGET: BCL-XL protein in MOLT-4 cells (Homo sapiens, UniProt Q07817)
Construct: host or cells: MOLT-4
MEASUREMENT_PROTOCOL: Degradation effect on BCL-XL protein in MOLT-4 cells by Western Blot
Type: cell-based
COND: 24 hours incubation, corrected by β-actin, read-out: DC50 concentration for BCL-XL protein degradation
QUANTITY_MEASURED: DC50

>  <MOLECULE>
O=C1CCC(N2Cc3cc(N4CCC(CN5CCN(CC#Cc6ccc(/C=C/c7ccc(C(=O)N8CCc9cnc(-c%10cnc%11ccccc%11c%10)nc9C8)cc7)cc6)CC5)CC4)ccc3C2=O)C(=O)N1 (stereo not shown) [Compound F2-4]

>  <DC50>
1 to 10 µM

$$$$
>  <MOLECULE>
CNc1nc(-c2cnc3ccccc3c2)nc2c1CCN(C(=O)c1ccc(/C=C/c3ccc(C#CCN4CCN(CCC#Cc5cccc(C6CCC(=O)NC6=O)c5)CC4)cc3)cc1)C2 (stereo not shown) [Compound D2-15]

>  <DC50>
1 to 10 µM

$$$$
>  <MOLECULE>
O=C1CCC(N2C(=O)c3ccc(N4CCN(CC5CCN(CC#Cc6ccc(/C=C/c7ccc(C(=O)N8CCc9cnc(-c%10cnc%11ccccc%11c%10)nc9C8)cc7)cc6)CC5)CC4)cc3C2=O)C(=O)N1 (stereo not shown) [Compound F1B-2]

>  <DC50>
50 to 100 µM

$$$$

Now examine the next entry.
-- ask Returns the measured DC50 for the input molecule. Input: O=C1CCC(N2Cc3cc(N4CCC(CN5CCN(CC#Cc6ccc(OCC78CC(C(=O)N9CCc%10cnc(-c%11cnc%12ccccc%12c%11)nc%10C9)(C7)C8)cc6)CC5)CC4)ccc3C2=O)C(=O)N1 (stereo not shown) [Compound F2-9]
-- reply 1 to 10 µM

* * *

STUDY_TARGET: ternary complex between BCL-XL and CRBN-DDB1 (Homo sapiens, UniProt Q07817+Q96SW2)
Sequence (Q07817 whole entry): as above
Sequence (Q96SW2 whole entry): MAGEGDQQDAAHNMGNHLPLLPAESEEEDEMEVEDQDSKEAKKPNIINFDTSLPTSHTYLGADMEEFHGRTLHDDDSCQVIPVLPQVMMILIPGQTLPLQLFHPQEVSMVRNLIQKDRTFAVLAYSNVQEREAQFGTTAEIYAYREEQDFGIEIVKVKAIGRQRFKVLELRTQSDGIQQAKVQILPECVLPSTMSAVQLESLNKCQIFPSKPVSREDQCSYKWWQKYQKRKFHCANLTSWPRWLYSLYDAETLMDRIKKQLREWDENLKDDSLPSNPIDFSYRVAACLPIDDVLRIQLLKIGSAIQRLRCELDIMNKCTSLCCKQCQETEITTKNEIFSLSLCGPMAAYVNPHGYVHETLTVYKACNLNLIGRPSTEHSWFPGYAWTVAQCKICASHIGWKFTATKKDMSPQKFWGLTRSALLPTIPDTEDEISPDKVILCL
Sequence (Q16531 whole entry partner): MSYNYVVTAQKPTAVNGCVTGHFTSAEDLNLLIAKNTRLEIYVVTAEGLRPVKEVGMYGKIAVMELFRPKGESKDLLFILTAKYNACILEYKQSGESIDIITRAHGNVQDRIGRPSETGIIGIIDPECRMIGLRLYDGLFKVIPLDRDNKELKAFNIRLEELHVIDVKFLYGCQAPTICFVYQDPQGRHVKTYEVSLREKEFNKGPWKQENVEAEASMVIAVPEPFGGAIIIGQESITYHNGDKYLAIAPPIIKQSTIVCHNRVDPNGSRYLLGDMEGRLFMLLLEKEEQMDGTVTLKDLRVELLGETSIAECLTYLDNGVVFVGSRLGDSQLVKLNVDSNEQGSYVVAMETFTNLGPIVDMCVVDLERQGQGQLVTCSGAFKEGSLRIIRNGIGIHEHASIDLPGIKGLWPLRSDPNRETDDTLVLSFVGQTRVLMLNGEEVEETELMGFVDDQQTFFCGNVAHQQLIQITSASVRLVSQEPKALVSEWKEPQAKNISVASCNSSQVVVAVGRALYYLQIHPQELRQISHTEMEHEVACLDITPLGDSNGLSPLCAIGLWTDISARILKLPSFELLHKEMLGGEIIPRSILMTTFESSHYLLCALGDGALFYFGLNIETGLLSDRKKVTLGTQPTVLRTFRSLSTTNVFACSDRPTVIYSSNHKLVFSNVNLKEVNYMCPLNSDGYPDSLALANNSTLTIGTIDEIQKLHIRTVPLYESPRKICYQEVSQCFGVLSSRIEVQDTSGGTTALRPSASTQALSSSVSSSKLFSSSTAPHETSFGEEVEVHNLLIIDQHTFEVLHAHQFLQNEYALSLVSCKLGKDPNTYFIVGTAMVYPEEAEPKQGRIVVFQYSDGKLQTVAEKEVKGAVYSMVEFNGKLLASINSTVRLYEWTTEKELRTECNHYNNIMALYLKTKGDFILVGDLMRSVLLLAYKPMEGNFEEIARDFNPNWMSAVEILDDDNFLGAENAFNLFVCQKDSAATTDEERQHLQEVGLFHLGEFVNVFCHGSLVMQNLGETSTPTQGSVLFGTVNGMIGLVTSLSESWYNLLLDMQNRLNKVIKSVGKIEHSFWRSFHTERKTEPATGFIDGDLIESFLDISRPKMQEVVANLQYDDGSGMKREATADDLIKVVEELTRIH
MEASUREMENT_PROTOCOL: Compound-induced formation of ternary complex between BCL-XL and CRBN-DDB1 by AlphaLISA
Type: biochemical
Set-up: key: the number of + indicates the intensity of AlphaLISA peak signal; ++: the number of + indicates the intensity of AlphaLISA peak signal; +++: the number of + indicates the intensity of AlphaLISA peak signal; ++++: the number of + indicates the intensity of AlphaLISA peak signal; +++++: the number of + indicates the intensity of AlphaLISA peak signal
COND: peak signal; 60 nM Strep-BCL-XL and 60 nM His-CRBN/DDB1
QUANTITY_MEASURED: AlphaLISA signal (PROTAC ternary complex signal intensity)

>  <COMPOUND>
CNc1nc(-c2cnc3ccccc3c2)nc2c1CCN(C(=O)c1ccc(/C=C/c3ccc(C#CCN4CCN(C(=O)CCCC(=O)N[C@H](C(=O)N5C[C@H](O)C[C@H]5C(=O)NCc5ccc(-c6scnc6C)cc5)C(C)(C)C)CC4)cc3)cc1)C2

>  <STUDY_TARGET>
ternary complex between BCL-XL and CRBN-DDB1 (Homo sapiens, UniProt Q07817+Q96SW2)

>  <RESULT>
+

$$$$
>  <COMPOUND>
CNc1nc(-c2cnc3ccccc3c2)nc2c1CCN(C(=O)c1ccc(/C=C/c3ccc(C#CCN4CCN(C(=O)CCCCC(=O)N[C@H](C(=O)N5C[C@H](O)C[C@H]5C(=O)NCc5ccc(-c6scnc6C)cc5)C(C)(C)C)CC4)cc3)cc1)C2

>  <STUDY_TARGET>
ternary complex between BCL-XL and CRBN-DDB1 (Homo sapiens, UniProt Q07817+Q96SW2)

>  <RESULT>
+

$$$$
>  <COMPOUND>
C=Cc1cc(-c2nc3c(c(NC)n2)CCN(C(=O)c2ccc(COc4ccc(C#CCN5CCN(CCCCCOc6cccc7c6C(=O)N(C6CCC(=O)NC6=O)C7=O)CC5)cc4)cc2)C3)cnc1C=C (centres unmarked)

>  <STUDY_TARGET>
ternary complex between BCL-XL and CRBN-DDB1 (Homo sapiens, UniProt Q07817+Q96SW2)

>  <RESULT>
++++

$$$$
>  <COMPOUND>
CNc1nc(-c2cnc3ccccc3c2)nc2c1CCN(C(=O)c1ccc(/C=C/c3ccc(C#CCN4CCN(C(=O)CCCCCC(=O)N[C@H](C(=O)N5C[C@H](O)C[C@H]5C(=O)NCc5ccc(-c6scnc6C)cc5)C(C)(C)C)CC4)cc3)cc1)C2

>  <STUDY_TARGET>
ternary complex between BCL-XL and CRBN-DDB1 (Homo sapiens, UniProt Q07817+Q96SW2)

>  <RESULT>
+

$$$$
>  <COMPOUND>
O=C1CCC(N2C(=O)c3ccc(N4CCN(CC5CCN(CC#Cc6ccc(/C=C/c7ccc(C(=O)N8CCc9cnc(-c%10cnc%11ccccc%11c%10)nc9C8)cc7)cc6)CC5)CC4)cc3C2=O)C(=O)N1 (centres unmarked)

>  <STUDY_TARGET>
ternary complex between BCL-XL and CRBN-DDB1 (Homo sapiens, UniProt Q07817+Q96SW2)

>  <RESULT>
+

$$$$

-- ask Returns the measured AlphaLISA signal (PROTAC ternary complex signal intensity) for the input compound. Input: C/C=c1/cc(-c2ncc3c(n2)CN(C(=O)c2ccc(/C=C/c4ccc(C#CCN5CCN(CCCCCOc6cccc7c6CN(C6CCC(=O)NC6=O)C7=O)CC5)cc4)cc2)CC3)cn/c1=C/C (centres unmarked)
-- reply +

-- ask What do you get for C/C=c1/cc(-c2nc3c(c(NC)n2)CCN(C(=O)c2ccc(/C=C/c4ccc(C#CCN5CCN(CCCCCOc6cccc7c6CN(C6CCC(=O)NC6=O)C7=O)CC5)cc4)cc2)C3)cn/c1=C/C (centres unmarked) ?
-- reply ++

-- ask What do you get for C=Cc1cc(-c2nc3c(c(NC)n2)CCN(C(=O)c2ccc(COc4ccc(C#CCN5CCN(CCCOc6cccc7c6C(=O)N(C6CCC(=O)NC6=O)C7=O)CC5)cc4)cc2)C3)cnc1C=C (centres unmarked) ?
-- reply +

* * *

STUDY_TARGET: ternary complex between BCL-XL and CRBN-DDB1 (Homo sapiens, UniProt Q07817+Q96SW2)
MEASUREMENT_PROTOCOL: Compound-induced formation of ternary complex between BCL-XL and CRBN-DDB1 by AlphaLISA
Format: biochemical
Design: key: the number of + indicates the intensity of AlphaLISA peak signal; ++: the number of + indicates the intensity of AlphaLISA peak signal; +++: the number of + indicates the intensity of AlphaLISA peak signal; ++++: the number of + indicates the intensity of AlphaLISA peak signal; +++++: the number of + indicates the intensity of AlphaLISA peak signal
COND: peak signal; 60 nM Strep-BCL-XL and 60 nM His-CRBN/DDB1
QUANTITY_MEASURED: AlphaLISA signal (PROTAC ternary complex signal intensity)

>  <COMPOUND>
C=Cc1cc(-c2ncc3c(n2)CN(C(=O)c2ccc(/C=C/c4ccc(C#CCN5CCN(C6CCN(CC#Cc7cccc8c7CN(C7CCC(=O)NC7=O)C8=O)CC6)CC5)cc4)cc2)CC3)cnc1C=C (stereo not shown) [Compound E1-2]

>  <RESULT>
++

$$$$
>  <COMPOUND>
O=C1CCC(N2Cc3c(OC4CC5(C4)CN(C4CCN(CC#Cc6ccc(/C=C/c7ccc(C(=O)N8CCc9cnc(-c%10cnc%11ccccc%11c%10)nc9C8)cc7)cc6)CC4)C5)cccc3C2=O)C(=O)N1 (stereo not shown)

>  <RESULT>
++

$$$$
>  <COMPOUND>
CNc1nc(-c2cnc3ccccc3c2)nc2c1CCN(C(=O)c1ccc(/C=C/c3ccc(C#CCN4CCN(CCCCC(=O)N[C@H](C(=O)N5C[C@H](O)C[C@H]5C(=O)N[C@@H](C)c5ccc(-c6scnc6C)cc5)C(C)(C)C)CC4)cc3)cc1)C2

>  <RESULT>
+

$$$$
>  <COMPOUND>
C=Cc1cc(-c2nc3c(c(NC)n2)CCN(C(=O)c2ccc(COc4ccc(C#CCN5CCN(CCCCCNc6cccc7c6C(=O)N(C6CCC(=O)NC6=O)C7=O)CC5)cc4)cc2)C3)cnc1C=C (stereo not shown)

>  <RESULT>
+++++

$$$$
